B1: OR4K15 (parent)
chain: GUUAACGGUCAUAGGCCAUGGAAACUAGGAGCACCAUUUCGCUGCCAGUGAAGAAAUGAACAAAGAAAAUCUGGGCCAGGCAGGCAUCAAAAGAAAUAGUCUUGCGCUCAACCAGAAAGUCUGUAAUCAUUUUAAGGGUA

- Variants of: B1
- Protocol Notes: self-cleavage, relative activity (ratio to wild type); higher = more cleavage; in vitro, sequencing; the parent is a self-cleaving ribozyme
Quick rule: self-cleavage of at least 0.6 means yes, below that means no.

[Q] Does GUUAACGGUCAUAGGCCAUGGAAACUAGGAGCAGCAUUUCGCUGCCAGUGAAGAAAUGAACAAAGAAAAUCUGGGCCAGGCAGGCAUCAAAAGAAAUAGUCUUGCGCUCAACCAGAAAGUCUGUAAUCAUUUUAAGGGUA [C34G] have a reported self-cleavage of at least 0.6?
[A] yes

[Q] Does GUUAACGGUCAUAGGCCUUGGAAACUAGGAGCACCAUUUCGCUGCCAGUGAAGAAAUGAACAAAGAAAAUCUGGGCCAGGCAGGCAUCAAAAGAAAUAGUCUUGCGCUCAGCCAGAAAGUCUGUAAUCAUUUUAAGGGUA [A18U A111G] have a reported self-cleavage of at least 0.6?
[A] no

[Q] Does GUUAACGGUCAUAGGCCAUGGAAACUAGGAGCACCAUUUCGCUGCCAGUGAAGAAAUGAACAAAGAAAAUCUGGGCCAGGCAGGCAUCAAAAGAAAUAGUCUUGCGCUCAACCAGAAACUCUGUAAUCAUUCUAAGGGUA [G119C U132C] have a reported self-cleavage of at least 0.6?
[A] yes

[Q] Does GUUAACGGUCAUAGGCCAUGGAAACUAGGAGCACCAUUUCGCUGCCAGUGAAGAAAUGAACAAAGAAAAUCUGGGCCAGGCAGGCAUCAAAAGAAAUAGUCUUGCGCUCUACCAGAAAGUCUGUAAUCACUUUAAGGGUA [A110U U130C] have a reported self-cleavage of at least 0.6?
[A] yes

[Q] Does GUUAACGGUCAUAGGCCAGGGAAACUAGGAGCGCCAUUUCGCUGCCAGUGAAGAAAUGAACAAAGAAAAUCUGGGCCAGGCAGGCAUCAAAAGAAAUAGUCUUGCGCUCAACCAGAAAGUCUGUAAUCAUUUUAAGGGUA [U19G A33G] have a reported self-cleavage of at least 0.6?
[A] yes

[Q] Does GUUAACGGUCAUAGGCCAUGGAAACUAGGAGCACCAUUUCGCUGCCAGUGAAGAAAUGUACAAAGAAAAUCUGGGCCAGGCGGGCAUCAAAAGAAAUAGUCUUGCGCUCAACCAGAAAGUCUGUAAUCAUUUUAAGGGUA [A59U A82G] have a reported self-cleavage of at least 0.6?
[A] no

[Q] Does GUUAACGGUCAUAGGCCAUGGAAACUAGGUGCACCAUUUCGCUGCCAGUGAAGAAAUGAACAAAGAAAAUCUGGGCCAGGCAGGCAUCAAAAGAAAUAGUCUUGCGCACAACCAGAAAGUCUGUAAUCAUUUUAAGGGUA [A30U U108A] have a reported self-cleavage of at least 0.6?
[A] no

[Q] Does GUUAACGGUCAUAGGCCAUGGAAACUAGGAGCGACAUUUCGCUGCCAGUGAAGAAAUGAACAAAGAAAAUCUGGGCCAGGCAGGCAUCAAAAGAAAUAGUCUUGCGCUCAACCAGAAAGUCUGUAAUCAUUUUAAGGGUA [A33G C34A] have a reported self-cleavage of at least 0.6?
[A] yes

[Q] Does GUUAACGGUCAUAGGCCAUGGAAACUAGGAGCACCAUUUCGCCGCCAGUGAAGAAAUGAACAAAGAAAAUCUGGGCCAGGCAGGCACCAAAAGAAAUAGUCUUGCGCUCAACCAGAAAGUCUGUAAUCAUUUUAAGGGUA [U43C U87C] have a reported self-cleavage of at least 0.6?
[A] no
